Data origin, for the record: paper PMC12156041

Below, each entry is listed alongside its reported solubility thermodynamic at 24 h.
Assay: Thermodynamic aqueous solubility (shake-flask, PBS-10% DMSO)
Assay type: physicochemical
Details: PBS with 10% DMSO, aqueous with cosolvent or surfactant or cyclodextrin, PBS pH 7.4, 10% DMSO, 20 °C, read-out: Thermodynamic aq. Solubility in PBS-10% DMSO
Write the number in µM without appending the unit.

Take a look at these entries with their results.
>  <compound>
CC1=C(Cc2ccc(C#N)cc2)C(=O)c2ccccc2C1=O [A-b-10]

>  <units.text>
µM

>  <reported.value>
0.82

$$$$
>  <compound>
COc1ccc(OC)c(CC2=C(C)C(=O)c3ccccc3C2=O)c1 [A-b-26]

>  <units.text>
µM

>  <reported.value>
0.59

$$$$
>  <compound>
CC1=C(Cc2ccc(C(F)(F)F)cc2)C(=O)c2ccc(F)cc2C1=O [Cpnd 7-F-PD]

>  <units.text>
µM

>  <reported.value>
0.59

$$$$
>  <compound>
O=C1C(O)=C([C@H]2CC[C@H](c3ccc(Cl)cc3)CC2)C(=O)c2ccccc21 [atovaquone, reference compound]

>  <units.text>
µM

>  <reported.value>
1.55

$$$$
>  <compound>
CC1=C(Cc2c(F)c(F)c(F)c(F)c2F)C(=O)c2ccccc2C1=O [A-b-47]

>  <units.text>
µM

>  <reported.value>
0.33

$$$$
>  <compound>
COc1ccc(CC2=C(C)C(=O)c3ccccc3C2=O)cc1 [A-b-16]

>  <units.text>
µM

>  <reported.value>
1.07

$$$$
>  <compound>
CC1=C(Cc2ccc(F)c(C(F)(F)F)c2)C(=O)c2ccccc2C1=O [A-b-9]

>  <units.text>
µM

>  <reported.value>
0.67

$$$$
>  <compound>
COc1cc(CC2=C(C)C(=O)c3ccccc3C2=O)cc(OC)c1 [B-b-35]

>  <units.text>
µM

>  <reported.value>
0.75

$$$$

Now examine the next entry.
Input line: Quote solubility thermodynamic at 24 h reported for CC1=C(Cc2ccc(C(F)(F)F)cc2)C(=O)c2cc(F)ccc2C1=O [Cpnd 6-F-PD] please.
Output line: 0.06

----------
Test system: P. falciparum NF54 strain
Test: P. falciparum NF54 [3H]hypoxanthine incorporation assay, 72 h, 0.5% Albumax
Assay type: cell-based
Conditions: Plasmodium falciparum, NF54, 72 h, read-out: IC50 NF54 72 h, 0.5% Albumax, Table 5B, 0.5% Albumax
measurement.label: pIC50
Reminder that pIC50 means the negative base-10 logarithm of the concentration expressed in mol/L.

Below are worked cases with known answers.
>  <compound>
CC1=C(Cc2ccc(C(F)(F)F)cc2)C(=O)c2cc(F)ccc2C1=O [Cpnd 6-F-PD]

>  <reported.value>
7.03

$$$$
>  <compound>
CC1=C(Cc2ccc(C(F)(F)F)cc2)C(=O)c2ccc(F)cc2C1=O [Cpnd 7-F-PD]

>  <reported.value>
7.05

$$$$
>  <compound>
CC1=C(Cc2ccc(F)c(C(F)(F)F)c2)C(=O)c2ccccc2C1=O [A-b-9]

>  <reported.value>
7.23

$$$$

Consider now this further compound.
Input line: Using the record for CC1=C(Cc2c(F)c(F)c(F)c(F)c2F)C(=O)c2ccccc2C1=O [A-b-47] , state its measured pIC50.
Output line: 7.09

----------
System: P. berghei (GFP ANKA malaria strain)
Assay: In vitro efficacy testing with P. berghei, 24 h (species shift assay)
Assay type: cell-based
Settings: Plasmodium berghei, read-out: IC50 Pb; P. berghei, 24 h assay
Strictly below 100 nM in IC50: satisfied. Otherwise: not satisfied.

>  <compound>
CC1=C(Cc2c(F)c(F)c(F)c(F)c2F)C(=O)c2ccccc2C1=O [A-b-47]

>  <discrete.label>
not satisfied

$$$$
>  <compound>
CC1=C(Cc2ccc(F)c(C(F)(F)F)c2)C(=O)c2ccccc2C1=O [A-b-9]

>  <discrete.label>
not satisfied

$$$$
>  <compound>
C[C@H]1[C@H](OC(=O)CCC(=O)O)O[C@@H]2O[C@@]3(C)CC[C@H]4[C@H](C)CC[C@@H]1[C@@]24OO3 [AS, artesunate, reference compound]

>  <discrete.label>
satisfied

$$$$
>  <compound>
CC1=C(Cc2ccc(C(F)(F)F)cc2)C(=O)c2ccc(F)cc2C1=O [Cpnd 7-F-PD]

>  <discrete.label>
not satisfied

$$$$

Attention now turns to another entry.
Input line: API: query returns whether the compound falls strictly under 100 nM in IC50. Query: CC1=C(Cc2ccc(C(F)(F)F)cc2)C(=O)c2cc(F)ccc2C1=O [Cpnd 6-F-PD]
Output line: not satisfied

----------
Tested on: P. falciparum NF54 strain
Experiment: Serum shift assay, P. falciparum NF54 72 h in 50% human serum
Conditions: 50% human serum versus 0.5% Albumax
measurement.label: Serum Shift
Please give the numeric answer without any surrounding text.

In the examples that follow, each entry is paired with its recorded Serum Shift.
>  <molecule>
CC1=C(Cc2c(F)c(F)c(F)c(F)c2F)C(=O)c2ccccc2C1=O [A-b-47]

>  <target.desc>
P. falciparum NF54 strain

>  <Serum Shift>
4.0

$$$$
>  <molecule>
CC1=C(Cc2ccc(C(F)(F)F)cc2)C(=O)c2cc(F)ccc2C1=O [Cpnd 6-F-PD]

>  <target.desc>
P. falciparum NF54 strain

>  <Serum Shift>
0.9

$$$$
>  <molecule>
CC1=C(Cc2ccc(C(F)(F)F)cc2)C(=O)c2ccc(F)cc2C1=O [Cpnd 7-F-PD]

>  <target.desc>
P. falciparum NF54 strain

>  <Serum Shift>
4.2

$$$$

Consider the additional molecule presented here.
Input line: Give a short answer stating reported Serum Shift for CC1=C(Cc2ccc(F)c(C(F)(F)F)c2)C(=O)c2ccccc2C1=O [A-b-9] .
Output line: 6.1

----------
Tested on: P. falciparum NF54 strain
Test: P. falciparum NF54 24 h assay (species shift assay)
Assay type: cell-based
Settings: read-out: IC50 Pf NF54, 24 h; 24 h assay
measurement.label: pIC50
Scale explanation: pIC50 corresponds to minus log10 of a concentration expressed in moles per litre.

Input line: Indicate the recorded pIC50 value for this compound: CCN(CC)CCCC(C)Nc1ccnc2cc(Cl)ccc12 (stereo not shown) [CQ, reference compound]
Output line: 8.31

----------
# Tox/L6 listing for each entry below
Test system: rat myoblast cell line (L6 cells)
Format: cell-based
Just the number please, in µM, no unit attached.

>  <molecule>
COc1ccc(CC2=C(C)C(=O)c3ccc(F)cc3C2=O)cc1 [A-a-16]

>  <units.text>
µM

>  <Tox/L6>
195.9

$$$$
>  <molecule>
CC1=C(Cc2ccc(C(F)(F)F)c(F)c2)C(=O)c2ccccc2C1=O [A-b-7]

>  <units.text>
µM

>  <Tox/L6>
49.2

$$$$
>  <molecule>
CC1=C(Cc2ccc3scnc3c2)C(=O)c2ccccc2C1=O [C-b-40]

>  <units.text>
µM

>  <Tox/L6>
50.29

$$$$
>  <molecule>
CC1=C(Cc2ccc(F)cc2)C(=O)c2cc(F)ccc2C1=O [A-a-4]

>  <units.text>
µM

>  <Tox/L6>
174.5

$$$$
>  <molecule>
CC1=C(Cc2ccccc2C#N)C(=O)c2ccccc2C1=O [A-b-11]

>  <units.text>
µM

>  <Tox/L6>
186.2

$$$$

Input line: // fetch Tox/L6; item: CC1=C(Cc2ccc(C#N)cc2)C(=O)c2cc(F)ccc2C1=O [A-a-10] ; system: rat myoblast cell line (L6 cells)
Output line: 95

Input line: State, for rat myoblast cell line (L6 cells), measured Tox/L6 of the molecule listed here: CC1=C(Cc2cccs2)C(=O)c2cc(F)ccc2C1=O [A-a-28]
Output line: 5.8

Input line: Fill in: Tox/L6 on rat myoblast cell line (L6 cells), entry CC1=C(CC2CCCCC2)C(=O)c2cc(F)ccc2C1=O [A-a-29]
Output line: 177.8

Input line: Report the value of Tox/L6 obtained on rat myoblast cell line (L6 cells) for CC1=C(Cc2ccc(OC(F)(F)F)cc2)C(=O)c2cc(F)ccc2C1=O [A-a-3] .
Output line: 138.8

Input line: Report value only: Tox/L6, rat myoblast cell line (L6 cells), CC1=C(Cc2ccccc2F)C(=O)c2cc(F)ccc2C1=O [A-a-6]
Output line: 7.6

Input line: Tell me Tox/L6 of CC1=C(Cc2cccc(C#N)c2)C(=O)c2ccccc2C1=O [B-b-30] when tested on rat myoblast cell line (L6 cells).
Output line: 72.6

Input line: Give Tox/L6 only, for COc1ccccc1CC1=C(C)C(=O)c2ccc(F)cc2C1=O [A-a-18] , using rat myoblast cell line (L6 cells) data.
Output line: 189.3

Input line: Fill: Tox/L6 (rat myoblast cell line (L6 cells)) for this molecule CC1=C(Cc2ccc3c(c2)OCO3)C(=O)c2cc(F)ccc2C1=O [A-a-21]
Output line: 165.6

Input line: Identify measured Tox/L6 obtained with rat myoblast cell line (L6 cells) for CC1=C(Cc2ccc(S(F)(F)(F)(F)F)cc2)C(=O)c2ccccc2C1=O [C-b-46, 4′-SF5-substituted 3-benzylmenadione] .
Output line: 35.1

Input line: Please report the measured Tox/L6 for CC1=C(Cc2ccccc2)C(=O)c2cc(F)ccc2C1=O [B-a-31] tested on rat myoblast cell line (L6 cells).
Output line: 174.5

Input line: Look up and report Tox/L6, with rat myoblast cell line (L6 cells) as system, for CC1=C(Cc2ccccc2C#N)C(=O)c2cc(F)ccc2C1=O [A-a-11]
Output line: 327.0
